# System: LOX IMVI melanoma
# measurementNotes: NCI-60 one-dose screen, 48 h
# appliedConditions: 10 µM unless noted
About 83,000 compounds went through this panel and 20% of them were active in at least one assay; those are over-represented in the sample as a whole. Calls of active or inactive are those of the source. How the source made its calls: active means growth percent below 10; inactive means the rest.
Labels: yes = active, no = inactive

| molecule | category |
| --- | --- |
| N#Cc1c(-c2ccc(C(F)(F)F)cc2)c(F)c(NCCC2CCC(O)C2)n2c1nc1ccccc12 (stereo not given) | yes |
| CC(=O)O[C@]1(C)C[C@H](O)[C@]2(O)C=CO[C@H](O[C@@H]3O[C@H](CO)[C@@H](O)[C@H](O)[C@H]3O)[C@@H]21 | no |
| CCN(CC)CCNc1ccc(N=Nc2cnc3ccccc3c2)c2ccccc12 | yes |
| COc1cc2c(cc1OCCCN1Cc3ccc(OCCCCC(=O)N4CCC(CCN5CCCC5)CC4)cc3C1)N=C(N)C21CCCC1 | no |
| CCN(CC)C(=O)C[N+](C)(C)CCOC(c1ccccc1)c1ccccc1 | no |

* * *

# Tested on: SNB-75 CNS
# measurementNotes: NCI-60 one-dose screen, 48 h (100 = growth as untreated, 0 = no growth, -100 = all killed)
# appliedConditions: 10 µM unless noted
The panel holds about 83,000 compounds, 20% with a hit somewhere; the sample as a whole holds those more often.
Reported growth values for a set of compounds
parameterMeasured: growth (%)

| compound | unitsSymbol | measured |
| --- | --- | --- |
| CS(=O)(=O)N1CCN(Cc2cc3nc(-c4cccc5[nH]ncc45)nc(N4CCOCC4)c3s2)CC1 | % | -25.6 |
| CCN(CC)CCOc1ccc(/C(=C(\C)c2ccc(Cl)cc2)c2ccc(Cl)cc2)cc1 | % | 116 |
| COc1cc(N2CCC(N3CCN(C)CC3)CC2)ccc1Nc1ncnc(Nc2ccccc2S(=O)(=O)C(C)C)n1 | % | 101 |
| Cc1cc(N(CCNc2ccnc3cc(Cl)ccc23)Cc2ccc3c(c2)OCO3)nc(N2CCCC2)n1 | % | -46.7 |
| CCN(CC)c1cc2oc3cc(N)cc(=N)c-3nc2cc1C | % | 11.6 |
| O=C(Nc1cccc([N+](=O)[O-])c1)c1ccc(Cl)c(Cl)c1 | % | -2.87 |
| COc1cc2ncnc(Nc3cccc(Cl)c3F)c2cc1OC(=O)N1CCN(C)C[C@H]1C | % | 71 |
| Cc1ccc(NC(=O)Nc2ccc(Nc3ncnc4sc5c(c34)CCOC5)cc2)cc1Cl | % | 69.8 |
| CC(=Nc1ccccc1)C1=C(O)C(Cc2ccccc2)NC1=O (stereo not given) | % | 19.1 |
| CC[C@H](Nc1ncnc2nc[nH]c12)c1nc2cccc(F)c2c(=O)n1-c1ccccc1 | % | 25.8 |
| Cc1cc(Nc2ncnc3ccc(NC4=NC(C)(C)CO4)cc23)ccc1Oc1ccn2ncnc2c1 | % | 39 |
| O=C(CNc1nc(-c2ccc(Cl)cc2)cs1)Nc1ccc(-c2nc3ccccc3s2)cc1 | % | 77.8 |
| CS(=O)(=O)CCNCc1ccc(-c2ccc3ncnc(Nc4ccc(OCc5cccc(F)c5)c(Cl)c4)c3c2)o1 | % | -97.2 |
| Cc1cc2c(F)c(Oc3ncnn4cc(OC[C@@H](C)OC(=O)[C@H](C)N)c(C)c34)ccc2[nH]1 | % | 55.6 |
| O=C(NC1CCNCC1)c1[nH]ncc1NC(=O)c1c(Cl)cccc1Cl | % | -40.7 |
| O=C(NO)c1ccc(Cn2c(=O)n(CCc3ccccc3)c(=O)c3ccccc32)cc1 | % | 54.3 |
| Cn1c(=O)c(F)c(Nc2ccc(I)cc2F)c2c(=O)n(C[C@@H](O)CO)cnc21 | % | 62.7 |
| CCCCCCCCCCCC[n+]1ccccc1 | % | 0.831 |
| CCCCCCCC(=O)SCC/C=C/[C@@H]1CC(=O)NCc2cc(ccn2)C2=N[C@@](C)(CS2)C(=O)N[C@@H](C(C)C)C(=O)O1 | % | 31.8 |
| COCC(=O)NC/C=C/c1ccc2ncnc(Nc3ccc(Oc4ccc(C)nc4)c(C)c3)c2c1 | % | 57.2 |
